All values here come from patent US7459450B2.

This listing pairs molecules with measured pKi.
biological target: Human NPY Y1 receptors (Homo sapiens, UniProt P25929); construct: expressed in transfected cells; host or cells: CHO cells (membrane protein); assay: NPY Receptor Binding Assay; details: Procedure E compounds, rated A/B/C
pKi: −log10 of the molar value.

Molecule: CC1(C)CS/C(=N\c2ccc(CCNc3nc4ccc(Cl)cc4s3)cc2)N1 [Example 240]
Tgt: Human NPY Y1 receptors (Homo sapiens, UniProt P25929)
pKi: 5.00 to 6.00

Molecule: c1ccc([C@@H]2CSC(Nc3ccc(CCNc4nc5ccccc5s4)cc3)=N2)cc1 [Example 196]
Tgt: Human NPY Y1 receptors (Homo sapiens, UniProt P25929)
pKi: > 6.00

Molecule: CC1CN/C(=N/c2ccc(CCNc3nc4ccccc4s3)cc2)S1 (stereo not shown) [Example 193]
Tgt: Human NPY Y1 receptors (Homo sapiens, UniProt P25929)
pKi: < 5.00

Molecule: c1ccc(C2CN/C(=N/c3ccc(CCNc4nc5ccccc5s4)cc3)S2)cc1 (stereo not shown) [Example 192]
Tgt: Human NPY Y1 receptors (Homo sapiens, UniProt P25929)
pKi: < 5.00

Molecule: Clc1cc2nc(NCCc3ccc(/N=C4/NC(c5ccccc5)CCS4)cc3)sc2cc1Cl (stereo not shown) [Example 66]
Tgt: Human NPY Y1 receptors (Homo sapiens, UniProt P25929)
pKi: < 5.00

Molecule: CC(C)C[C@@H]1CS/C(=N\c2ccc(CCNc3nc4ccc(S(C)(=O)=O)cc4s3)cc2)N1 [Example 245]
Tgt: Human NPY Y1 receptors (Homo sapiens, UniProt P25929)
pKi: 5.00 to 6.00

Quickly give me recorded pKi for Cc1cccc2sc(NCCc3ccc(/N=C4/NC(c5ccccc5)CCS4)cc3)nc12 (stereo not shown) [Example 208]
< 5.00

Quickly give me recorded pKi for c1ccc(C2CCS/C(=N/c3ccccc3CCNc3nc4ccccc4s3)N2)cc1 (stereo not shown) [Example 70]
< 5.00

Quickly give me recorded pKi for c1ccc2sc(NCCc3ccc(/N=C4/NC5(CCCC5)CS4)cc3)nc2c1 [Example 271]
> 6.00

Quickly give me recorded pKi for COc1cccc2sc(NCCc3ccc(/N=C4/N[C@H]5c6ccccc6CC5S4)cc3)nc12 (stereo partly shown) [Example 325]
< 5.00

Quickly give me recorded pKi for COc1ccc2nc(NCCc3ccc(/N=C4/N[C@@H](C(C)C)CS4)cc3)sc2c1 [Example 216]
5.00 to 6.00

---

target: Human NPY Y1 receptors (Homo sapiens); construct: expressed in transfected cells; host or cells: CHO cells (membrane protein); test: NPY Receptor Binding Assay; conditions: Procedure I compounds, column head blank, rated A/B/C
Measure name: Ki

Molecule: c1ccc(C2CCCCC(Nc3ccc(CCNc4nc5ccccc5s4)cc3)=N2)cc1 (centres unmarked)
Tgt: Human NPY Y1 receptors (Homo sapiens)
Measure name: Ki
Data value: 1 to 10 µM

Here's the next entry for you.
Quickly give me recorded Ki for c1ccc(C2CCCC(Nc3ccc(CCNc4nc5ccccc5s4)cc3)=N2)cc1 (centres unmarked)
1 to 10 µM

---

This listing pairs compounds with measured Ki.
molecular target: Human NPY Y1 receptors (Homo sapiens); construct: expressed in transfected cells; host or cells: CHO cells (membrane protein); test: NPY Receptor Binding Assay; settings: Procedure E compounds, rated A/B/C

Some solved cases for reference:
Compound: COc1ccc(C2CCSC(Nc3ccc(CCNc4nc5ccccc5s4)cc3)=N2)cc1 (stereo not drawn) [Example 333]
Data value: < 1000 nM
--
Compound: COc1ccc2nc(NCCc3ccc(/N=C4/NCC(c5ccccc5)S4)cc3)sc2c1 (stereo not drawn) [Example 85]
Data value: > 10000 nM
--
Compound: Clc1ccc2nc(NCCc3ccc(/N=C4/NC(c5ccccc5)CCS4)cc3)sc2c1 (stereo not drawn) [Example 212]
Data value: < 1000 nM

Quickly give me recorded Ki for CS(=O)(=O)c1ccc2nc(NCCc3ccc(/N=C4/N[C@@H](Cc5c[nH]cn5)CS4)cc3)sc2c1 [Example 116]
1000 to 10000 nM

Quickly give me recorded Ki for C[C@@H]1CS/C(=N\c2ccc(CCNc3nc4ccc(Cl)cc4s3)cc2)N1 [Example 109]
1000 to 10000 nM

Quickly give me recorded Ki for CC[C@@H]1CS/C(=N\c2ccc(CCNc3nc4ccc(C)cc4s3)cc2)N1 [Example 96]
< 1000 nM

Quickly give me recorded Ki for CCC1CS/C(=N\c2ccc(CCNc3nc4ccccc4s3)cc2)N1 (stereo not drawn) [Example 263]
< 1000 nM

Quickly give me recorded Ki for c1cc(CCNc2nc3ccccc3s2)cc(/N=C2\NCCCS2)c1 [Example 69]
> 10000 nM

Quickly give me recorded Ki for COc1ccc2nc(NCCc3ccc(/N=C4/NC5(CCCC5)CS4)cc3)sc2c1 [Example 220]
1000 to 10000 nM

Quickly give me recorded Ki for c1ccc2sc(NCCc3ccc(NC4=NC(C5CCCCC5)CCS4)cc3)nc2c1 (stereo not drawn) [Example 201]
< 1000 nM

---

Target: Human NPY Y1 receptors (Homo sapiens, UniProt P25929)
Construct: expressed in transfected cells; host or cells: CHO cells (membrane protein)
Sequence (P25929 1-384): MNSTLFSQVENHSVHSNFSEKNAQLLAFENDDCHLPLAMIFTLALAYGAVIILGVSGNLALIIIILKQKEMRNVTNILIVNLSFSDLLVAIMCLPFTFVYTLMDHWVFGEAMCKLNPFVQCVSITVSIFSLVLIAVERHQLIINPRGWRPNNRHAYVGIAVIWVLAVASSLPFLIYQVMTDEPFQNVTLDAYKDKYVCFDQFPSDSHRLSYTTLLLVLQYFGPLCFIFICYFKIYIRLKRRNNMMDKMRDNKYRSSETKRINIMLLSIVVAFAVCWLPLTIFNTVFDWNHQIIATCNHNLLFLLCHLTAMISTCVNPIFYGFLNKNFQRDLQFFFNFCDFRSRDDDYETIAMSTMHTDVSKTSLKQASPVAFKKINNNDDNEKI
Assay: NPY Receptor Binding Assay
Settings: Procedure E compounds, rated A/B/C
Protocol: NPY Receptor Binding Assay Human NPY Y1 receptors were expressed in CHO cells. Binding assays were performed in 50 mM HEPES, pH 7.2, 2.5 mM CaCl2, 1 mM MgCl2 and 0.1% BSA containing 5-10 μg of membrane protein and 0.1 nM […] in a total volume of 200 μl. Non-specific binding was determined in the presence of 1 μM NPY. […] The filters were washed with phosphate-buffered saline, and radioactivity was measured in a Packard TopCount scintillation counter.
pKi: −log10 of the molar value.
Measure name: pKi

Some solved cases for reference:
Compound: CC1(C)CS/C(=N\c2ccc(CCNc3nc4ccc([N+](=O)[O-])cc4s3)cc2)N1
Tgt: Human NPY Y1 receptors (Homo sapiens, UniProt P25929)
pKi: < 5.00
--
Compound: Clc1ccc2nc(NCCc3ccc(/N=C4/NC5(CCCC5)CS4)cc3)sc2c1
Tgt: Human NPY Y1 receptors (Homo sapiens, UniProt P25929)
pKi: 5.00 to 6.00
--
Compound: c1ccc(C2CCS/C(=N/c3cccc(CCNc4nc5ccccc5s4)c3)N2)cc1 (centres unmarked)
Tgt: Human NPY Y1 receptors (Homo sapiens, UniProt P25929)
pKi: < 5.00
--
Compound: CC(C)CC1CCSC(Nc2ccc(CCNc3nc4ccccc4s3)cc2)=N1 (centres unmarked)
Tgt: Human NPY Y1 receptors (Homo sapiens, UniProt P25929)
pKi: > 6.00
--
Compound: CS(=O)(=O)c1ccc2nc(NCCc3ccc(NC4=NCCCS4)cc3)sc2c1
Tgt: Human NPY Y1 receptors (Homo sapiens, UniProt P25929)
pKi: 5.00 to 6.00

Quickly give me recorded pKi for CCCC1CS/C(=N\c2ccc(CCNc3nc4ccc(Cl)cc4s3)cc2)N1 (centres unmarked)
> 6.00

Quickly give me recorded pKi for COc1ccc2nc(NCCc3ccc(/N=C4\SC5Cc6ccccc6[C@@H]5N4C4CC4)cc3)sc2c1 (some centres unmarked)
< 5.00

Quickly give me recorded pKi for `Fc1ccc2nc(NCCc3ccc(/N=C4/NC5(CCCC5)CS4)cc3)sc2c1`
> 6.00

---

This listing pairs molecules with measured pKi.
molecular target: Human NPY Y1 receptors (Homo sapiens, UniProt P25929); construct: expressed in transfected cells; host or cells: CHO cells (membrane protein); assay: NPY Receptor Binding Assay; conditions: Procedure E compounds, rated A/B/C
pKi: −log10 of the molar value.

Some solved cases for reference:
Molecule: CCCCC1CS/C(=N\c2ccc(CCNc3nc4ccc(OC)cc4s3)cc2)N1 (stereo not shown)
Tgt: Human NPY Y1 receptors (Homo sapiens, UniProt P25929)
Measure name: pKi
Data value: > 6.00

Molecule: CN1CCS/C1=N/c1cccc(CCNc2nc3ccccc3s2)c1
Tgt: Human NPY Y1 receptors (Homo sapiens, UniProt P25929)
Measure name: pKi
Data value: < 5.00

Here's the next entry for you.
Quickly give me recorded pKi for `CC1(C)CS/C(=N\c2ccc(CCNc3nc4ccccc4s3)cc2)N1`
> 6.00
